The compounds listed here are annotated with their inhibition at 48 h, 62.5 ug/ml.
Protocol Details: Cytotoxicity against African green monkey Vero cells assessed as growth inhibition at 62.5 ug/ml after 48 hrs by MTT assay relative to control
Assay type: cell-based
Applied Conditions: chlorocebus sabaeus, read-out: GI
The figure you give is taken to be in %; do not add the unit.

>  <Smiles Str>
N#Cc1ccc(Cn2cc(CNC(=O)c3cccnc3)nn2)cc1

>  <Units Symbol>
%

>  <inhibition at 48 h, 62.5 ug/ml>
17.7

$$$$

Memo: `N#Cc1ccc(Cn2cc(CNC(=O)c3cnccn3)nn2)cc1` , reported inhibition at 48 h, 62.5 ug/ml: 12.3

Query `O=C(NCc1cn(Cc2ccc(C(F)(F)F)cc2)nn1)c1cccnc1` yields inhibition at 48 h, 62.5 ug/ml of 7.42

inhibition at 48 h, 62.5 ug/ml measured on `O=C(NCc1cn(Cc2ccc([N+](=O)[O-])cc2)nn1)c1cccnc1` = 7.08

Reported inhibition at 48 h, 62.5 ug/ml of `O=C(NCc1cn(Cc2ccc(C(F)(F)F)cc2)nn1)c1cnccn1` : 8.4

For reference, reported inhibition at 48 h, 62.5 ug/ml for `O=C(NCc1cn(Cc2ccc([N+](=O)[O-])cc2)nn1)c1cnccn1` stands at 20.5

Reported inhibition at 48 h, 62.5 ug/ml ( `O=C(NCc1cn(Cc2ccc(F)cc2)nn1)c1cnccn1` ) = 5.9
